// data source = PubChem BioAssay (NCI)

Please provide measured TGI for the entries that follow.
Test system: BT-549 breast
measurement notes: NCI tumour cell line growth inhibition, 48 h

Below are worked cases with known answers.
[
  {
    "compound": "C=CCCCCOC1C=CC(O)C(CO)O1 (stereo not given)",
    "TGI": "> 100 µM"
  },
  {
    "compound": "O=C(C[P+](c1ccccc1)(c1ccccc1)c1ccccc1)C[P+](c1ccccc1)(c1ccccc1)c1ccccc1",
    "TGI": "1.24 µM"
  },
  {
    "compound": "Cc1cccc(C)c1Nc1nc(C)c(C(=O)CC(=O)C(=O)Nc2c(C(C)C)cccc2C(C)C)s1",
    "TGI": "> 100 µM"
  },
  {
    "compound": "COC(=O)/C=C(\\S/C=C(/c1ccccc1)N1CCn2c(C(=O)c3ccccc3)c(C(=O)OC)c(C(=O)OC)c21)C(=O)OC",
    "TGI": "> 10 µM"
  },
  {
    "compound": "Cc1ccc(-c2nc(-c3cn(C)c4ncccc34)cs2)cc1",
    "TGI": "32.4 µM"
  }
]

Dear colleague, could you please provide TGI for the compounds listed below?
1. CC(C)(C)C1=CC(=C2C=Cc3ccccc3O2)C=C(C(C)(C)C)C1=O
2. CCOC(=O)CN1CC(C2=C(O)CN(CC(=O)OCC)C2=O)=CC1=O
3. Cc1c(N2C(=O)/C(=C/c3ccc(N(CCC#N)CCC#N)cc3)N=C2c2ccccc2)c(=O)n(-c2ccccc2)n1C
4. CC(=O)OC1CC[C@@]2(C)C(CC[C@]3(C)C2CC=C2[C@@H]4C(C)[C@H](C)CCC4(C)CCC23C)[C@@]1(C)C(=O)O (stereo not given in full)
5. Cc1cc(O)c(/C=N/C(=S)Nc2ccccc2)c(=O)o1
6. CC12CCC3c4cc(Br)c(O)c(Br)c4CCC3C1CCC2O (stereo not given)

22.1 µM
> 100 µM
> 100 µM
49.8 µM
> 100 µM
30.2 µM
